biological target: 5-hydroxytryptamine receptor 1B (Homo sapiens); test: Inhibition of 5-HT1B receptor (unknown origin) at 10 uM by CEREP analysis relative to control
PROPERTY: inhibition (%)

COMPOUND	inhibition (%)
COc1cc2nccc(Oc3c(F)cc(NC(=O)c4cnccc4OC)cc3F)c2cc1O[C@@H](C)CO	-3
COc1cc2nccc(Oc3c(F)cc(NC(=O)c4cnccc4OC)cc3F)c2cc1OCCO	16

I = COc1cc2c(Oc3c(F)cc(NC(=O)c4cnccc4OC4CC4)cc3F)ccnc2cc1OCCO
II = COc1cc2c(Oc3c(F)cc(NC(=O)c4cnccc4OC)cc3F)ccnc2cc1OCCO
III = CNCCOc1cc2nccc(Oc3c(F)cc(NC(=O)c4cnccc4OC)cc3F)c2cc1OC
Prompt line: Arrange the 3 molecules from largest to smallest inhibition. When ranking, write the labels in the order the request describes.
Response line: III, I, II
(III: 54%, I: 22%, II: -8%)
